The reported measurements were obtained from ChEMBL document CHEMBL3244382.

system: Mus musculus; assay: Toxicity in PS mouse allografted with mouse P388 cells assessed as change in body weight at 50 ug/kg relative to control; assay type: organism-based; details: in vivo, 0.05 mg/kg
As shown below, each of these compounds has a reported Activity value.
Your answer is read as g, so omit the unit and give the number.

Use the examples below as a reference point.
compound: COc1cc2cc(c1Cl)N(C)C(=O)C[C@H](OC(C)=O)[C@]1(C)O[C@H]1[C@H](C)[C@@H]1C[C@@](O)(NC(=O)O1)[C@H](OC)/C=C/C=C(\C)C2
Activity / g: -0.3

compound: CCO[C@]12C[C@H](OC(=O)N1)[C@@H](C)[C@@H]1O[C@@]1(C)[C@@H](OC(=O)[C@H](C)N(C)C(=O)C(C)C)CC(=O)N(C)c1cc(cc(OC)c1Cl)C/C(C)=C/C=C/[C@H]2OC
Activity / g: 1.3

compound: CCO[C@]12C[C@H](OC(=O)N1)[C@@H](C)[C@@H]1O[C@@]1(C)[C@@H](OC(=O)[C@H](C)N(C)C(C)=O)CC(=O)N(C)c1cc(cc(OC)c1Cl)C/C(C)=C/C=C/[C@H]2OC
Activity / g: -0.8

[Q] Using the record for COc1cc2cc(c1Cl)N(C)C(=O)CC(O)C1(C)OC1C(C)C1CC(O)(NC(=O)O1)C(OC)/C=C/C=C(\C)C2 (centres undefined) , report its Activity.
[A] -0.4

[Q] Lookup `COc1cc2cc(c1Cl)N(C)C(=O)/C=C/[C@]1(C)O[C@H]1[C@H](C)[C@@H]1C[C@@](O)(NC(=O)O1)[C@H](OC)/C=C/C=C(\C)C2`
[A] 2.6

[Q] Lookup COc1cc2cc(c1Cl)N(C)C(=O)C[C@H](OC(=O)C(C)C)[C@]1(C)O[C@H]1[C@H](C)[C@@H]1C[C@@](O)(NC(=O)O1)[C@H](OC)/C=C/C=C(\C)C2OC(C)=O (some centres undefined)
[A] -1

[Q] Lookup `CCC(=O)N(C)[C@@H](C)C(=O)O[C@H]1CC(=O)N(C)c2cc(cc(OC)c2Cl)C/C(C)=C/C=C/[C@@H](OC)[C@@]2(O)C[C@H](OC(=O)N2)[C@@H](C)[C@@H]2O[C@@]12C`
[A] -1.2

[Q] Lookup `CCCS[C@]12C[C@H](OC(=O)N1)[C@@H](C)[C@@H]1O[C@@]1(C)[C@@H](OC(=O)[C@H](C)N(C)C(C)=O)CC(=O)N(C)c1cc(cc(OC)c1Cl)C/C(C)=C/C=C/[C@H]2OC`
[A] -1.3

[Q] Lookup `COc1cc2cc(c1Cl)NC(=O)/C=C/[C@]1(C)O[C@H]1[C@H](C)[C@@H]1C[C@@](O)(NC(=O)O1)[C@H](OC)/C=C/C=C(\C)C2`
[A] -0.3

[Q] Lookup `C/C=C/C(=O)O[C@H]1CC(=O)N(C)c2cc(cc(OC)c2Cl)C/C(C)=C/C=C/[C@@H](OC)[C@@]2(O)C[C@H](OC(=O)N2)[C@@H](C)[C@@H]2O[C@@]12C`
[A] -3.5

[Q] Lookup `CCC(=O)O[C@H]1CC(=O)N(C)c2cc(cc(OC)c2Cl)C/C(C)=C/C=C/[C@@H](OC)[C@@]2(O)C[C@H](OC(=O)N2)[C@@H](C)[C@@H]2O[C@@]12C`
[A] -0.9

[Q] Lookup `COc1cc2cc(c1Cl)N(C)C(=O)C[C@H](OC(=O)[C@H](C)N(C)C(=O)CC(C)C)[C@]1(C)O[C@H]1[C@H](C)[C@@H]1C[C@@](O)(NC(=O)O1)[C@H](OC)/C=C/C=C(\C)C2`
[A] -0.5

[Q] Lookup `COc1cc2cc(c1Cl)N(C)C(=O)C[C@H](OC(=O)[C@H](C)N(C)C(C)=O)[C@]1(C)O[C@H]1[C@H](C)[C@@H]1C[C@@](O)(NC(=O)O1)[C@H](OC)/C=C/C=C(\C)C2`
[A] 0.3

[Q] Lookup `COc1cc2cc(c1Cl)N(C)C(=O)C[C@H](OC(=O)CBr)[C@]1(C)O[C@H]1[C@H](C)[C@@H]1C[C@@](O)(NC(=O)O1)[C@H](OC)/C=C/C=C(\C)C2`
[A] -0.3

[Q] Lookup `COc1cc2cc(c1Cl)N(C)C(=O)C[C@H](OC(=O)[C@H](C)N(C)C(C)=O)[C@]1(C)O[C@H]1[C@H](C)[C@@H]1C[C@@](OC)(NC(=O)O1)[C@H](OC)/C=C/C=C(\C)C2`
[A] -2.3

[Q] Lookup `COc1cc2cc(c1Cl)NC(=O)/C=C/C(C)=C/[C@H](C)[C@@H]1C[C@@](O)(NC(=O)O1)[C@H](OC)/C=C/C=C(\C)C2`
[A] 1.8

[Q] Lookup `COc1cc2cc(c1Cl)N(C)C(=O)C[C@H](OC(=O)[C@H](C)N(C)C(=O)C(C)C)[C@]1(C)O[C@H]1[C@H](C)[C@@H]1C[C@@](O)(NC(=O)O1)[C@H](OC)/C=C/C=C(\C)C2`
[A] 0.1

[Q] Lookup `COc1cc2cc(c1Cl)N(C)C(=O)C[C@H](OC(=O)[C@H](C)N(C)C(=O)C(C)C)[C@]1(C)O[C@H]1[C@H](C)[C@@H]1C[C@@](OC)(NC(=O)O1)[C@H](OC)/C=C/C=C(\C)C2`
[A] -2

[Q] Lookup `CCCS[C@]12C[C@H](OC(=O)N1)[C@@H](C)[C@@H]1O[C@@]1(C)[C@@H](OC(=O)[C@H](C)N(C)C(=O)C(C)C)CC(=O)N(C)c1cc(cc(OC)c1Cl)C/C(C)=C/C=C/[C@H]2OC`
[A] 0.4

----------
biological target: Tubulin (Homo sapiens) (UniProt P68371+Q9H4B7+P0DPH7+P68366+Q13509+Q71U36+P04350+Q3ZCM7+P07437+P68363+Q9BQE3+Q6PEY2+Q13885+Q9BVA1+Q9BUF5); assay: Inhibition of brain tubulin polymerization (unknown origin) at 37 degC by spectrophotometry
The source made the active and inactive calls. The calls are words filed in the database; no cut-off is given here.
measured parameter: inhibition

structure as smiles: CCC(=O)O[C@H]1CC(=O)N(C)c2cc(cc(OC)c2Cl)C/C(C)=C/C=C/[C@@H](OC)[C@@]2(O)C[C@H](OC(=O)N2)[C@@H](C)[C@@H]2O[C@@]12C
result: Active
--
structure as smiles: COc1cc2cc(c1Cl)N(C)C(=O)C[C@H](OC(=O)[C@H](C)N(C)C(C)=O)[C@]1(C)O[C@H]1[C@H](C)[C@@H]1C[C@@](O)(NC(=O)O1)[C@H](OC)/C=C/C=C(\C)C2
result: Active
--
structure as smiles: COc1cc2cc(c1Cl)NC(=O)/C=C/[C@]1(C)O[C@H]1[C@H](C)[C@@H]1C[C@@](O)(NC(=O)O1)[C@H](OC)/C=C/C=C(\C)C2
result: Active

----------
system: Mus musculus; assay: Toxicity in PS mouse allografted with mouse P388 cells assessed as change in body weight at 0.9 ug/kg relative to control; format: organism-based; conditions: in vivo, 0.0009 mg/kg
measured parameter: Activity (g)
Your answer is read as g, so omit the unit and give the number.

[Q] Using the record for `COc1cc2cc(c1Cl)N(C)C(=O)C[C@H](OC(=O)CBr)[C@]1(C)O[C@H]1[C@H](C)[C@@H]1C[C@@](O)(NC(=O)O1)[C@H](OC)/C=C/C=C(\C)C2` , report its Activity.
[A] -0.4

----------
system: Mus musculus; experiment: Toxicity in PS mouse allografted with mouse P388 cells assessed as survival at 200 ug/kg after 4 days; assay type: organism-based; settings: in vivo, 0.2 mg/kg, 96 h

structure as smiles: COc1cc2cc(c1Cl)NC(=O)/C=C/C(C)=C/[C@H](C)[C@@H]1C[C@@](O)(NC(=O)O1)[C@H](OC)/C=C/C=C(\C)C2
Activity: Non-toxic
--
structure as smiles: COc1cc2cc(c1Cl)N(C)C(=O)C[C@H](OC(=O)CBr)[C@]1(C)O[C@H]1[C@H](C)[C@@H]1C[C@@](O)(NC(=O)O1)[C@H](OC)/C=C/C=C(\C)C2
Activity: Toxic
--
structure as smiles: COc1cc2cc(c1Cl)N(C)C(=O)C[C@H](OC(C)=O)[C@]1(C)O[C@H]1[C@H](C)[C@@H]1C[C@@](O)(NC(=O)O1)[C@H](OC)/C=C/C=C(\C)C2
Activity: Non-toxic

----------
tested on: Mus musculus; experiment: Toxicity in PS mouse allografted with mouse P388 cells assessed as change in body weight at 0.4 ug/kg relative to control; format: organism-based; conditions: in vivo, 0.0004 mg/kg
Field 'label' (enum: Satisfied / Not satisfied). Set to Satisfied when Activity is strictly under -0.6 g; else Not satisfied.

Examples from the recorded data:
structure as smiles: COc1cc2cc(c1Cl)N(C)C(=O)C[C@H](OC(=O)[C@H](C)N(C)C(C)=O)[C@]1(C)O[C@H]1[C@H](C)[C@@H]1C[C@@](O)(NC(=O)O1)[C@H](OC)/C=C/C=C(\C)C2
answer label: Not satisfied

structure as smiles: COc1cc2cc(c1Cl)N(C)C(=O)C[C@H](OC(=O)[C@H](C)N(C)C(=O)CC(C)C)[C@]1(C)O[C@H]1[C@H](C)[C@@H]1C[C@@](O)(NC(=O)O1)[C@H](OC)/C=C/C=C(\C)C2
answer label: Satisfied

structure as smiles: COc1cc2cc(c1Cl)N(C)C(=O)/C=C/[C@]1(C)O[C@H]1[C@H](C)[C@@H]1C[C@@](O)(NC(=O)O1)[C@H](OC)/C=C/C=C(\C)C2
answer label: Not satisfied

structure as smiles: COc1cc2cc(c1Cl)NC(=O)/C=C/[C@]1(C)O[C@H]1[C@H](C)[C@@H]1C[C@@](O)(NC(=O)O1)[C@H](OC)/C=C/C=C(\C)C2
answer label: Not satisfied

structure as smiles: CCC(=O)N(C)[C@@H](C)C(=O)O[C@H]1CC(=O)N(C)c2cc(cc(OC)c2Cl)C/C(C)=C/C=C/[C@@H](OC)[C@@]2(O)C[C@H](OC(=O)N2)[C@@H](C)[C@@H]2O[C@@]12C
answer label: Satisfied

[Q] A record lists `COc1cc2cc(c1Cl)N(C)C(=O)C[C@H](OC(=O)[C@H](C)N(C)C(=O)C(C)C)[C@]1(C)O[C@H]1[C@H](C)[C@@H]1C[C@@](O)(NC(=O)O1)[C@H](OC)/C=C/C=C(\C)C2` . Is its Activity below -0.6 g?
[A] Not satisfied
